target: Human recombinant PDE3A (hPDE3A) (Homo sapiens); construct: purchased Scottish Biomedical; host or cells: Sf9 insect cells; experiment: In vitro assay PDE3A (SPA, 3H-cAMP hydrolysis); type: biochemical; details: read-out: hPDE3B Emax; read-out: Emax;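 note: the method names PDE3A and the table heading PDE3B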
Sequence (Q14432 whole entry): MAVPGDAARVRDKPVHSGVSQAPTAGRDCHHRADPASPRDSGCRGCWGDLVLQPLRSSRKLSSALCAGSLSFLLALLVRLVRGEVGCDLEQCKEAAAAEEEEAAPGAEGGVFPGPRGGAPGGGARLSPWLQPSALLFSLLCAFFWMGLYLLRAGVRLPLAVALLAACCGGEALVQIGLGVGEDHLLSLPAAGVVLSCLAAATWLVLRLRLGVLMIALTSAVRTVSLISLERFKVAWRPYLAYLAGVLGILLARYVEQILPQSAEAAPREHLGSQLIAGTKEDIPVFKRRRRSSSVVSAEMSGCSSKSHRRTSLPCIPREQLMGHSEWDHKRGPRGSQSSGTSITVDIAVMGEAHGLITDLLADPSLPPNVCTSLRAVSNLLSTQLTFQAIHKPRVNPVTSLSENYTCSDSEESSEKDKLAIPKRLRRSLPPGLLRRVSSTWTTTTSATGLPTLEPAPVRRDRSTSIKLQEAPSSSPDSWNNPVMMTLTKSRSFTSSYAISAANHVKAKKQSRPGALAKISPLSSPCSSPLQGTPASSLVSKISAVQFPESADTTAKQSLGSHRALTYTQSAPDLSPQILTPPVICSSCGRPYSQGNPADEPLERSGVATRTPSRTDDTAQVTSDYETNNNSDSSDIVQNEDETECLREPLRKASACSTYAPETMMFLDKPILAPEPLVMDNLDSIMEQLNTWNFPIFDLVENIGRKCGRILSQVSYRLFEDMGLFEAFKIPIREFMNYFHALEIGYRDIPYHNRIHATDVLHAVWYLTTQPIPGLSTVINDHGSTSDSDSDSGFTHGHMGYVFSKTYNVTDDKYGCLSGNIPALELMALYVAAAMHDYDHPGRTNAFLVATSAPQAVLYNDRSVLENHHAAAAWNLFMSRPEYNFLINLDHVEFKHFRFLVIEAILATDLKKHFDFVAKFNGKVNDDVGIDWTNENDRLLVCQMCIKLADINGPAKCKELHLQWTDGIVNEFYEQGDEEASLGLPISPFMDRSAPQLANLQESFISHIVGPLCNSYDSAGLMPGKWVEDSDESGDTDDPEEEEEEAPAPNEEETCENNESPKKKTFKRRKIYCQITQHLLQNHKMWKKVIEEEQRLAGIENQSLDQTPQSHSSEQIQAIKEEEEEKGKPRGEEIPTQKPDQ
Note to self: Emax under 50% means true, ties and anything higher get false.

Answered cases to consult:
C[C@@H]1CCN(C(=O)c2cncn2C)C[C@H]1c1cc(C(F)F)nc2ncnn12
true
O=C(c1cnc2c(Cl)cccc2c1)N1[C@H]2CC[C@H](c3cc(C(F)F)nc4ncnn34)[C@@H]1CC2
false
Cc1cc(C)nc(C(=O)N2CC[C@@H](C)[C@H](c3cc(C(F)F)nc4ncnn34)C2)c1
true
C[C@@H]1CCN(C(=O)c2ccc3ncsc3c2)C[C@H]1c1cc(C(F)F)nc2ncnn12
false
Cc1ccc(C(=O)N2[C@H]3CC[C@H](c4cc(C(F)F)nc5ncnn45)[C@@H]2CC3)cc1Cl
false
Cc1cc(C)cc(C(=O)N2CC[C@@H](C)[C@H](c3cc(C(F)F)nc4ncnn34)C2)c1
false

Is Emax of C[C@@H]1CCN(C(=O)c2ccc(Cl)c(C3CC3)c2)C[C@H]1c1cc(C(F)F)nc2ncnn12 strictly below 50%? true

# strict comparison: is reported Emax < 50%? input = C[C@@H]1CCN(C(=O)c2cc(-c3ccco3)nn2C)C[C@H]1c1cc(C(F)F)nc2ncnn12 false

# strict comparison: is reported Emax < 50%? input = COc1nc(C)c(C(=O)N2CC[C@@H](C)[C@H](c3cc(C(F)F)nc4ncnn34)C2)s1 false

# TODO verify Emax < 50% strictly for this compound: C[C@@H]1CCN(C(=O)c2ccc(Br)cn2)C[C@H]1c1cc(C(F)F)nc2ncnn12 false

is_below(Emax, 50%) for C[C@@H]1CCN(C(=O)c2ccnnc2)C[C@H]1c1cc(C(F)F)nc2ncnn12 ? true

Hello, I'm reviewing records and need to know if Emax of O=C(c1ccc(C(F)(F)F)cc1)N1[C@H]2CC[C@H](c3cc(C(F)F)nc4ncnn34)[C@@H]1CC2 is below 50%. Could you check? false
